- System: MOLM14 cells
- Method: Proliferation assay, spheroid-like growth, MOLM14 (MLL-AF9 rearranged)
- Format: cell-based, human
- Measurement setup: Homo sapiens, MOLM-14, 192 h, 8 days, confluence as measure of spheroid size, read-out: spheroid assay_OneTime MOLM14 IC50
Checkbox rule: IC50 lower than 6 nM = Criterion met; IC50 not lower than 6 nM = Criterion not met.

| Compound | Assigned category |
| --- | --- |
| CC(C)C([C@H]1C[C@@H](NC(=O)OC(C)(C)C)C1)N1CC2(CCN(c3ncnnc3Oc3ccc(F)cc3-c3cncnc3C3CC3)C2)C1 (single isomer, unassigned) [Compound 491a] | Criterion met |
| CC(C)[C@H]([C@H]1C[C@@H](N2CCNC(=O)C2)C1)N1CC2(CCN(c3ncnnc3Oc3ccc(F)cc3-c3cncnc3C3CC3)C2)C1 (single isomer, unassigned) [Compound 240] | Criterion not met |
| CO[C@H]1CCN([C@H]2C[C@@H]([C@H](C(C)C)N3CC4(CCN(c5ncnnc5Oc5ccc(F)cc5-c5nnc(C)cc5C5CC5)C4)C3)C2)C1 [Compound 398] | Criterion not met |

For the next question, use this compound.
Problem: Take the compound CC(C)[C@H]([C@H]1C[C@@H](N2CCC(C)(C(=O)N(C)C)CC2)C1)N1CC2(CCN(c3ncnnc3Oc3ccc(F)cc3-c3cncnc3C3CC3)C2)C1 (single isomer, unassigned) [Compound 62] and say whether its IC50 is less than 6 nM.
Result: Criterion met
